target: recombinant full-length human GSK3β (Homo sapiens, UniProt P49841); construct: recombinant full-length human GSK3β (Upstate); purchased Upstate; assay: Luciferase-coupled cell-free GSK3β kinase assay; assay type: biochemical; conditions: Table 1
Sequence (P49841 whole entry): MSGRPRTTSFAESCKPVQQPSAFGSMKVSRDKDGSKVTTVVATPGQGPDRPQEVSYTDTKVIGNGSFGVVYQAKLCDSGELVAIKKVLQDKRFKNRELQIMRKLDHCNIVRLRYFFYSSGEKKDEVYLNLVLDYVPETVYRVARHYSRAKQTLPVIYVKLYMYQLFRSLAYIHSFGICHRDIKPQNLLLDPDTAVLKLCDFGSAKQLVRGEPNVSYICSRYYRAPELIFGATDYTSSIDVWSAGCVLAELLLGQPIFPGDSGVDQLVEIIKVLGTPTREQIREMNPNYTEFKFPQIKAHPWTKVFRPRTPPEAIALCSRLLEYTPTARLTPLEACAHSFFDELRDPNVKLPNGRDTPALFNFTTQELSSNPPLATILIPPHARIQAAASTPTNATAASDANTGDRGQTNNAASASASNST
pIC50: −log10 of the molar value.
// reported pIC50 for each item listed
Parameter measured: pIC50

{"columns": ["Molecule", "Observed measurement"],
 "data": [
  ["Nc1c(F)c(NCCc2ccccc2)c(F)c2c1c(=O)ccn2C1CC1 [compound 32]", "6.00 to 6.30"],
  ["COc1c(NCCCn2ccnc2)c(F)c(N)c2c(=O)c(C(=O)O)cn(C3CC3)c12 [compound 69]", "> 7.00"],
  ["Nc1c(F)c(NCCCc2ccccc2)c(F)c2c1c(=O)c(C(=O)O)cn2C1CCCC1 [compound 52]", "> 7.00"],
  ["COc1c(NCCCc2ccccc2)c(F)c(N)c2c(=O)c(C(=O)O)cn(C3CC3)c12 [compound 67]", "> 7.00"],
  ["CC(C)OCCCNc1c(F)c(N)c2c(=O)c(C(=O)O)cn(C3CC3)c2c1F [compound 17]", "6.30 to 7.00"],
  ["COc1c(NCCNc2ccccc2)c(F)c(N)c2c(=O)c(C(=O)O)cn(C3CC3)c12 [compound 84]", "6.30 to 7.00"],
  ["CC(C)OCCCNc1c(F)c(N)c2c(=O)c(C(=O)O)cn(CCc3ccccc3)c2c1F [compound 50]", "6.00 to 6.30"],
  ["COc1c(NCCNc2ccccn2)c(F)c(N)c2c(=O)c(C(=O)O)cn(C3CC3)c12 [compound 71]", "6.30 to 7.00"],
  ["N#Cc1ccc(NCCNc2c(F)c(N)c3c(=O)ccn(C4CC4)c3c2F)nc1 [compound 40]", "6.30 to 7.00"],
  ["COc1c(NCCCn2cnc3ccccc32)c(F)c(N)c2c(=O)c(C(=O)O)cn(C3CC3)c12 [compound 83]", "> 7.00"],
  ["Nc1c(F)c(NCCc2ccncc2)c(F)c2c1c(=O)c(C(=O)O)cn2C1CCCC1 [compound 53]", "6.30 to 7.00"],
  ["Nc1c(F)c(N2CCN(Cc3ccccc3)CC2)c(F)c2c1c(=O)c(C(=O)O)cn2C1CC1 [compound 22]", "< 6.00"],
  ["COc1c(NCCCn2ccnc2)c(F)c(N)c2c(=O)c(C(=O)O)cn(C3CCCC3)c12 [compound 78]", "6.00 to 6.30"],
  ["Nc1c(F)c(NCCn2cncn2)c(F)c2c1c(=O)c(C(=O)O)cn2C1CC1 [compound 44]", "< 6.00"],
  ["Nc1c(F)c(NCCCn2ccnc2)c(F)c2c1c(=O)c(C(=O)O)cn2CCCn1ccnc1 [compound 61]", "6.30 to 7.00"],
  ["Nc1c(F)c(NCCc2ccncc2)c(F)c2c1c(=O)ccn2C1CCCC1 [compound 73]", "> 7.00"],
  ["Nc1c(F)c(NCCNC(=O)c2ccc(F)cc2)c(F)c2c1c(=O)ccn2C1CC1 [compound 35]", "6.30 to 7.00"],
  ["COc1c(NCCNc2ccccn2)c(F)c(N)c2c(=O)c(C(=O)O)cn(C3CCCC3)c12 [compound 77]", "< 6.00"],
  ["Nc1c(F)c(NCCCn2ccnc2)c(F)c2c1c(=O)c(C(=O)O)cn2CCc1ccccc1 [compound 48]", "> 7.00"],
  ["CC(C)OCCCNc1c(F)c(N)c2c(=O)c(C(=O)O)cn(C3CCCC3)c2c1F [compound 55]", "> 7.00"],
  ["CC(C)OCCCNc1c(F)c(N)c2c(=O)ccn(CCc3ccccc3)c2c1F [compound 60]", "6.00 to 6.30"],
  ["Nc1c(F)c(NCCNC(=O)c2ccc3ccccc3n2)c(F)c2c1c(=O)c(C(=O)O)cn2C1CC1 [compound 39]", "6.00 to 6.30"]
]}
